tested on: Brassica rapa subsp. oleifera; experiment: Herbicidal activity against Brassica rapa subsp. oleifera assessed as inhibition of root growth at 100 ug/mL at 28 degC; assay type: functional
Recorded inhibition at 100 µg/mL determines the group label, using interval 1 (below 30%), interval 2 (30% to below 70%), interval 3 (70% or more)

# molecule, tgt, classification
measured = [
    ("Cc1ccnc(N2CCN(Cn3nc(C(F)(F)F)n(/N=C/c4ccc(C)c(C)c4)c3=S)CC2)n1", "Brassica rapa subsp. oleifera", "interval 1"),
    ("Fc1ccccc1/C=N/n1c(C(F)(F)F)nn(CN2CCN(Cn3nc(C(F)(F)F)n(/N=C/c4ccccc4F)c3=S)CC2)c1=S", "Brassica rapa subsp. oleifera", "interval 1"),
    ("FC(F)(F)c1nn(CN2CCN(Cn3nc(C(F)(F)F)n(/N=C/c4ccccc4)c3=S)CC2)c(=S)n1/N=C/c1ccccc1", "Brassica rapa subsp. oleifera", "interval 2"),
    ("Cc1ccnc(N2CCN(Cn3nc(C(F)(F)F)n(/N=C/c4ccccc4)c3=S)CC2)n1", "Brassica rapa subsp. oleifera", "interval 1"),
    ("COc1nc(C)nc(NC(=O)NS(=O)(=O)c2ccccc2Cl)n1 [CHLORSULFURON]", "Brassica rapa subsp. oleifera", "interval 3"),
    ("COc1ccc(/C=N/n2c(C(F)(F)F)nn(CN3CCN(c4nc(C)cc(C)n4)CC3)c2=S)cc1", "Brassica rapa subsp. oleifera", "interval 2"),
    ("Fc1ccccc1/C=N/n1c(C(F)(F)F)nn(CN2CCN(c3ncccn3)CC2)c1=S", "Brassica rapa subsp. oleifera", "interval 3"),
    ("Cc1ccnc(N2CCN(Cn3nc(C(F)(F)F)n(/N=C/c4ccccc4F)c3=S)CC2)n1", "Brassica rapa subsp. oleifera", "interval 1"),
    ("FC(F)(F)c1nn(CN2CCN(c3ncccn3)CC2)c(=S)n1/N=C/c1ccccc1", "Brassica rapa subsp. oleifera", "interval 2"),
    ("COc1ccc(/C=N/n2c(C(F)(F)F)nn(CN3CCN(c4ncccn4)CC3)c2=S)cc1", "Brassica rapa subsp. oleifera", "interval 3"),
    ("Cc1cc(C)nc(N2CCN(Cn3nc(C(F)(F)F)n(/N=C/c4ccc(Cl)cc4)c3=S)CC2)n1", "Brassica rapa subsp. oleifera", "interval 3"),
    ("Cc1cc(C)nc(N2CCN(Cn3nc(C(F)(F)F)n(/N=C/c4ccc(C)c(C)c4)c3=S)CC2)n1", "Brassica rapa subsp. oleifera", "interval 1"),
    ("Cc1ccc(/C=N/n2c(C(F)(F)F)nn(CN3CCN(Cn4nc(C(F)(F)F)n(/N=C/c5ccc(C)c(C)c5)c4=S)CC3)c2=S)cc1C", "Brassica rapa subsp. oleifera", "interval 1"),
]

###

# Lookup of reported inhibition of growth at 500 µg/mL keyed by entry
tested on: Pseudomonas amygdali pv. lachrymans; test: Fungicidal activity against Pseudomonas syringae pv. lachrymans in cucumber plant two seed leaves stage assessed as control efficacy from disease indices at 500 ug/mL at 18 to 30 degC and above 80%RH relative to control; assay type: functional; settings: read-out: GI
measure.name: inhibition of growth at 500 µg/mL (%)

# input.smiles, test.value
rows = [
    ("COc1ccc(/C=N/n2c(C(F)(F)F)nn(CN3CCN(c4nc(C)cc(C)n4)CC3)c2=S)cc1", 50.3),
    ("Fc1ccccc1/C=N/n1c(C(F)(F)F)nn(CN2CCN(Cn3nc(C(F)(F)F)n(/N=C/c4ccccc4F)c3=S)CC2)c1=S", 6.8),
    ("Cc1ccnc(N2CCN(Cn3nc(C(F)(F)F)n(/N=C/c4ccc(C)c(C)c4)c3=S)CC2)n1", 22),
    ("Cc1cc(C)nc(N2CCN(Cn3nc(C(F)(F)F)n(/N=C/c4ccccc4F)c3=S)CC2)n1", 56.1),
    ("Cc1cc(C)nc(N2CCN(Cn3nc(C(F)(F)F)n(/N=C/c4ccccc4[N+](=O)[O-])c3=S)CC2)n1", 46.5),
]

###

system: Brassica rapa subsp. oleifera; experiment: Herbicidal activity against Brassica rapa subsp. oleifera assessed as inhibition of root growth at 100 ug/mL at 28 degC; format: functional
# Lookup of reported inhibition at 100 µg/mL keyed by entry
measure.name: inhibition at 100 µg/mL (%)

# input.smiles, tgt, test.value
records = [
    ("COc1ccc(/C=N/n2c(C(F)(F)F)nn(CN3CCN(c4nccc(C)n4)CC3)c2=S)cc1", "Brassica rapa subsp. oleifera", 30.3),
    ("Cc1ccnc(N2CCN(Cn3nc(C(F)(F)F)n(/N=C/c4ccc(Cl)cc4)c3=S)CC2)n1", "Brassica rapa subsp. oleifera", 68.6),
    ("COc1ccc(/C=N/n2c(C(F)(F)F)nn(CN3CCN(Cn4nc(C(F)(F)F)n(/N=C/c5ccc(OC)cc5)c4=S)CC3)c2=S)cc1", "Brassica rapa subsp. oleifera", 29.5),
    ("Cc1cc(C)nc(N2CCN(Cn3nc(C(F)(F)F)n(/N=C/c4ccccc4)c3=S)CC2)n1", "Brassica rapa subsp. oleifera", 71.1),
]
